Test system: DU-145 prostate
Test: NCI tumour cell line growth inhibition, 48 h
Please go through the items and note down their TGI.

Some molecules with recorded TGI:
1. CC1(C)N=C(N)N=C(N)N1c1ccc(CCCCc2ccc(S(=O)(=O)F)cc2)c(Cl)c1 | 17.5 µM
2. Fc1ccccc1C1SCc2nc3cc4ccccc4cc3n21 (centres undefined) | > 100 µM
3. C[CH2][Pb]([CH2]C)([CH2]C)[O]C(=O)c1ccc2ccccc2n1 | > 10 µM

// for each molecule below, give its TGI
1. Cc1ccc(N=Nc2c(O)c(C(=O)Nc3ccccc3)cc3ccccc23)c([N+](=O)[O-])c1
2. CN(CCCNC(=O)c1nn(-c2ccc(Cl)cc2Cl)c2c1Cc1ccccc1-2)CCCNC(=O)c1nn(-c2ccc(Cl)cc2Cl)c2c1Cc1ccccc1-2
3. OC1(c2ccccc2)CSC2=Nc3ccccc3C3CCN1N23 (centres undefined)
4. Cc1csc2nc(-c3ccc(Cl)c([N+](=O)[O-])c3)c(/C=N/N=C(N)N)n12

Result block:
1: > 100 µM; 2: 3.18 µM; 3: 29.7 µM; 4: 4.86 µM
